Reference for the values: patent US8658604B2

Target: Elastase from human neutrophils (Homo sapiens, UniProt P08246)
Sequence (P08246 30-267): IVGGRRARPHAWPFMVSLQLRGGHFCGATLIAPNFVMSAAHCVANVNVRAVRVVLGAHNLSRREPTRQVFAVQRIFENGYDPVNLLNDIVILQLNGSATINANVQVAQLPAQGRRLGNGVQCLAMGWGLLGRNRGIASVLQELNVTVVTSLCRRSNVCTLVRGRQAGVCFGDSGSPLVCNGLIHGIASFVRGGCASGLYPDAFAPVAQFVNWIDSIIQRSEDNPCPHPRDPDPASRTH
Assay: Enzymatic assay, elastase
Conditions: Elastase IC50
Where a SMILES comes first, the peptide text is derived from it.
Form field: IC50 (one value per entry).

Below: 3 compounds and their reported IC50.
COMPOUND	IC50
CCCC[C@@H]1NC(=O)[C@@H]2CCCN2C(=O)[C@@H](CCCNC(=N)N)NC(=O)[C@H](Cc2ccc(O)cc2)NC(=O)[C@@H]2CSSC[C@H](NC1=O)C(=O)N[C@@H]([C@@H](C)O)C(=O)N[C@@H](C)C(=O)N[C@@H](CO)C(=O)N[C@@H]([C@@H](C)CC)C(=O)N1CCC[C@H]1C(=O)N1CCC[C@H]1C(=O)N[C@@H](CCC(N)=O)C(=O)N2 [Ex. 117] (HELM PEPTIDE1{A.S.I.P.P.Q.C.Y.[dR].P.[Nle].C.T}$PEPTIDE1,PEPTIDE1,7:R3-12:R3|PEPTIDE1,PEPTIDE1,1:R1-13:R2$$$V2.0)	33 nM
CCCC[C@@H]1NC(=O)[C@@H]2CCCN2C(=O)[C@@H]2CCCN2C(=O)[C@H](CC(=O)O)NC(=O)[C@H](CO)NC(=O)[C@H](CCCCN)NC(=O)[C@H]([C@@H](C)O)NC(=O)[C@@H]2CSSC[C@H](NC1=O)C(=O)N[C@@H](CCCNC(=N)N)C(=O)N1CCC[C@@H]1C(=O)N1CCC[C@H]1C(=O)N[C@@H]([C@@H](C)CC)C(=O)N2 [Ex. 19] (HELM PEPTIDE1{I.C.T.K.S.D.P.P.[Nle].C.R.[dP].P}$PEPTIDE1,PEPTIDE1,2:R3-10:R3|PEPTIDE1,PEPTIDE1,1:R1-13:R2$$$V2.0)	> 100000 nM
CCCC[C@@H]1NC(=O)[C@@H]2CCCN2C(=O)[C@H]2CCCN2C(=O)[C@H](Cc2ccccc2Cl)NC(=O)[C@@H]2CSSC[C@H](NC1=O)C(=O)N[C@@H]([C@@H](C)O)C(=O)N[C@@H](C)C(=O)N[C@@H](CO)C(=O)N[C@@H]([C@@H](C)CC)C(=O)N1CCC[C@H]1C(=O)N1CCC[C@H]1C(=O)N[C@@H](CCC(N)=O)C(=O)N2 [Ex. 144] (HELM PEPTIDE1{[Nle].C.T.A.S.I.P.P.Q.C.[O=C([C@H](Cc1ccccc1Cl)N[*:1])[*:2]].[dP].P}$PEPTIDE1,PEPTIDE1,2:R3-10:R3|PEPTIDE1,PEPTIDE1,1:R1-13:R2$$$V2.0)	7.5 nM

Here's the next entry for you.
Could you share which IC50 value was measured for CCCC[C@@H]1NC(=O)[C@H](CO)NC(=O)[C@H]2CCCN2C(=O)[C@H](Cc2ccc(O)cc2)NC(=O)[C@@H]2CSSC[C@H](NC1=O)C(=O)N[C@@H]([C@@H](C)O)C(=O)N[C@@H](C)C(=O)N[C@@H](CO)C(=O)N[C@@H]([C@@H](C)CC)C(=O)N1CCC[C@H]1C(=O)N1CCC[C@H]1C(=O)N[C@@H](CCC(N)=O)C(=O)N2 [Ex. 124] (HELM PEPTIDE1{A.S.I.P.P.Q.C.Y.[dP].S.[Nle].C.T}$PEPTIDE1,PEPTIDE1,7:R3-12:R3|PEPTIDE1,PEPTIDE1,1:R1-13:R2$$$V2.0) ?
40 nM
